Catalogue of recombinant UMI read abundance (log10) values
- Run description: recombinant UMI read abundance after kanamycin selection (control-corrected) (log10(CPM+1)); higher = more efficient recombination; extreme values may be limits of the assay; sequences stand for … in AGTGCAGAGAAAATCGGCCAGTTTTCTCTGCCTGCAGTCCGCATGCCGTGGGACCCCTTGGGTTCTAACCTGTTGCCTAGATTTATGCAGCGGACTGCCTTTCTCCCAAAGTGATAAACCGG…AGGTTGGTTTCACT; site = the 11-nt donor;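 note: IS621 bridge recombinase in Escherichia coli cells against a fixed T5 target plasmid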
# respond with the number and nothing more

Known results for sequences:
Sequence data	recombinant UMI read abundance (log10)
AGGAACACATGGACCGGTTTTCCCGGTAATCCGTATTTGCA (site AGGAAAACTTG)	0
CTCTAGTCATGGACCGGTTTTCCCGGTAATCCGTATTTGTG (site CTCTAGTCTCA)	1.99
CTGGAAACATGGACCGGTTTTCCCGGTAATCCGTATTTGCC (site CTGGAAACTTG)	0.22
CGCCGAACATGGACCGGTTTTCCCGGTAATCCGTATTTGCT (site CGCCGCACTAG)	0.0174

Reported recombinant UMI read abundance (log10) of GGCCAACCATGGACCGGTTTTCCCGGTAATCCGTATTTGTT (site GGCCATCCTAA) : 0.00632

---

- Run description: recombinant UMI read abundance after kanamycin selection (control-corrected) (log10(CPM+1)); higher = more efficient recombination; extreme values may be limits of the assay; sequences stand for … in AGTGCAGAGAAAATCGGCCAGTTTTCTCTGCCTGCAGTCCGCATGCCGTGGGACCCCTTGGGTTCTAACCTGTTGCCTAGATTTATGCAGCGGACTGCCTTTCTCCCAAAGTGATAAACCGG…AGGTTGGTTTCACT; site = the 11-nt donor
Measured parameter: recombinant UMI read abundance (log10)

Known results for sequences:
Sequence data	recombinant UMI read abundance (log10)
ACATGAACATGGACCGGTTTTCCCGGTAATCCGTATTTGTC (site ACAGGAACTGA)	0
ACACGAACATGGACCGGTTTTCCCGGTAATCCGTATTTGCC (site ACACGAACTGG)	2.57
CTAGCTTCATGGACCGGTTTTCCCGGTAATCCGTATTTGAC (site CTAGTATCTGT)	0
CTTGTGTCATGGACCGGTTTTCCCGGTAATCCGTATTTGTG (site CTTGTGTCTCA)	2.16
CGGTTTACATGGACCGGTTTTCCCGGTAATCCGTATTTGCT (site CCGTTTACTAG)	0.391
TTATGACCATGGACCGGTTTTCCCGGTAATCCGTATTTGAC (site TTATGACCTGT)	0
CGATCGACATGGACCGGTTTTCCCGGTAATCCGTATTTGCT (site CGATCGACTAC)	0.00923
CGACCGTCATGGACCGGTTTTCCCGGTAATCCGTATTTGCA (site CGACCGTCTTG)	3.11
CGTTATACATGGACCGGTTTTCCCGGTAATCCGTATTTGAG (site CGTTAGACTCT)	0.0101
TAGAAGACATGGACCGGTTTTCCCGGTAATCCGTATTTGCA (site TAGAATACTTG)	0

Reported recombinant UMI read abundance (log10) of AGCCTGTCATGGACCGGTTTTCCCGGTAATCCGTATTTGAC (site AGCCTCTCTGT) : 0

Reported recombinant UMI read abundance (log10) of CGTGGAACATGGACCGGTTTTCCCGGTAATCCGTATTTGTT (site CGTCGAACTAA) : 0.0185

Reported recombinant UMI read abundance (log10) of CTTGTCTCATGGACCGGTTTTCCCGGTAATCCGTATTTGTA (site CTTGTCTCTTA) : 2.82

---

- Run description: recombinant UMI read abundance after kanamycin selection (control-corrected) (log10(CPM+1)); higher = more efficient recombination; extreme values may be limits of the assay; sequences stand for … in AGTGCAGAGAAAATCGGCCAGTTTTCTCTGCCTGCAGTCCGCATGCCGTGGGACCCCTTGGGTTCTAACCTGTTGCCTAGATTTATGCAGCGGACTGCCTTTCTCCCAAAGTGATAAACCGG…AGGTTGGTTTCACT; site = the 11-nt donor
Measured parameter: recombinant UMI read abundance (log10)
# respond with the number and nothing more

Known results for sequences:
Sequence data	Readout number
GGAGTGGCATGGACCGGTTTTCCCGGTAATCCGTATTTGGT (site GGAGCGGCTAC)	0.00445
AATTATGCATGGACCGGTTTTCCCGGTAATCCGTATTTGGC (site AATTATGCTTC)	0.332

Consider the additional sequence presented here.
Reported recombinant UMI read abundance (log10) of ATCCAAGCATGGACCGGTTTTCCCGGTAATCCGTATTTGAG (site ATCCAAGCTTT) : 0.757

---

- Run description: recombinant UMI read abundance after kanamycin selection (control-corrected) (log10(CPM+1)); higher = more efficient recombination; extreme values may be limits of the assay; sequences stand for … in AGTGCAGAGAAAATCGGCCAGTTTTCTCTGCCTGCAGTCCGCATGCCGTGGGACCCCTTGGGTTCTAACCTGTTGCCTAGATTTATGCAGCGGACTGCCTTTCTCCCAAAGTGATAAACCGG…AGGTTGGTTTCACT; site = the 11-nt donor
Values of recombinant UMI read abundance (log10) greater than or equal to 0.01 map to t; values below map to f.

Previously resolved entries follow.
Sequence data	Group
TCTAAAGCATGGACCGGTTTTCCCGGTAATCCGTATTTGAT (site GCTAAAGCTAT)	f
AGCGTAGCATGGACCGGTTTTCCCGGTAATCCGTATTTGCA (site AGCGTAGCTTG)	t
TGACTTTCATGGACCGGTTTTCCCGGTAATCCGTATTTGAG (site TGACTTTCTCT)	f
ATATGGCCATGGACCGGTTTTCCCGGTAATCCGTATTTGAC (site ATAGGGCCTGT)	f
TTACCTGCATGGACCGGTTTTCCCGGTAATCCGTATTTGTG (site TTATCTGCTCA)	f

Ask | Determine whether this sequence has recombinant UMI read abundance (log10) no lower than 0.01: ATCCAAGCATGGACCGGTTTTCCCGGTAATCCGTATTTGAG (site ATCCGAGCTCT)
Reply | f

Ask | Determine whether this sequence has recombinant UMI read abundance (log10) no lower than 0.01: CGCCTTTCATGGACCGGTTTTCCCGGTAATCCGTATTTGAC (site TGCCTTTCTGT)
Reply | f

Ask | Determine whether this sequence has recombinant UMI read abundance (log10) no lower than 0.01: AGATCTTCATGGACCGGTTTTCCCGGTAATCCGTATTTGCT (site AGATCTTCTAG)
Reply | t

Ask | Determine whether this sequence has recombinant UMI read abundance (log10) no lower than 0.01: CCCCTATCATGGACCGGTTTTCCCGGTAATCCGTATTTGTC (site CCCCTATCTGA)
Reply | t

Ask | Determine whether this sequence has recombinant UMI read abundance (log10) no lower than 0.01: CAATCAGCATGGACCGGTTTTCCCGGTAATCCGTATTTGCT (site CAATCAGCTAG)
Reply | t

Ask | Determine whether this sequence has recombinant UMI read abundance (log10) no lower than 0.01: CCTAATACATGGACCGGTTTTCCCGGTAATCCGTATTTGGC (site CCTATTACTGC)
Reply | f

Ask | Determine whether this sequence has recombinant UMI read abundance (log10) no lower than 0.01: ATCCTATCATGGACCGGTTTTCCCGGTAATCCGTATTTGAG (site ATCCTATCTCT)
Reply | t

Ask | Determine whether this sequence has recombinant UMI read abundance (log10) no lower than 0.01: AATTATGCATGGACCGGTTTTCCCGGTAATCCGTATTTGGC (site AATTATGCTAC)
Reply | f

Ask | Determine whether this sequence has recombinant UMI read abundance (log10) no lower than 0.01: GCGGGTGCATGGACCGGTTTTCCCGGTAATCCGTATTTGTA (site GCGGGTGCTTA)
Reply | t

Ask | Determine whether this sequence has recombinant UMI read abundance (log10) no lower than 0.01: CGATAACCATGGACCGGTTTTCCCGGTAATCCGTATTTGGT (site CGATAACCTAC)
Reply | f

Ask | Determine whether this sequence has recombinant UMI read abundance (log10) no lower than 0.01: CGAGGAGCATGGACCGGTTTTCCCGGTAATCCGTATTTGGA (site CGAGGAGCTTC)
Reply | t

Ask | Determine whether this sequence has recombinant UMI read abundance (log10) no lower than 0.01: AGTACACCATGGACCGGTTTTCCCGGTAATCCGTATTTGAC (site GGTACACCTGT)
Reply | f

Ask | Determine whether this sequence has recombinant UMI read abundance (log10) no lower than 0.01: TCTATGCCATGGACCGGTTTTCCCGGTAATCCGTATTTGTT (site TCTATGCCTAA)
Reply | f

Ask | Determine whether this sequence has recombinant UMI read abundance (log10) no lower than 0.01: ACACTCCCATGGACCGGTTTTCCCGGTAATCCGTATTTGCG (site CTGACGACTAC)
Reply | t

Ask | Determine whether this sequence has recombinant UMI read abundance (log10) no lower than 0.01: AAGCACGCATGGACCGGTTTTCCCGGTAATCCGTATTTGGT (site AAGCACGCTCC)
Reply | t

Ask | Determine whether this sequence has recombinant UMI read abundance (log10) no lower than 0.01: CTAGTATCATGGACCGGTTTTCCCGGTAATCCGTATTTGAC (site CTTGTATCTAT)
Reply | f

Ask | Determine whether this sequence has recombinant UMI read abundance (log10) no lower than 0.01: ATTGCGGCATGGACCGGTTTTCCCGGTAATCCGTATTTGCT (site ATTGCGGCTAG)
Reply | t

Ask | Determine whether this sequence has recombinant UMI read abundance (log10) no lower than 0.01: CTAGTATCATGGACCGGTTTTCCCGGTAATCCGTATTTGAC (site CTACCATCTGT)
Reply | f

Ask | Determine whether this sequence has recombinant UMI read abundance (log10) no lower than 0.01: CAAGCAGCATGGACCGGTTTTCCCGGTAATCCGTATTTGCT (site CAAGCATCTAG)
Reply | t

Ask | Determine whether this sequence has recombinant UMI read abundance (log10) no lower than 0.01: GGTCCTACATGGACCGGTTTTCCCGGTAATCCGTATTTGTA (site GGTCCCACTTA)
Reply | t
